Reference source: the NIST ThermoML archive (doi:10.1021/je8004112)

Conditions: 313.15 K, Ring tensiometer
Below is a list of entries, each paired with its recorded surface tension liquid-gas value.

| chemical-string | quantity-unit | surface tension liquid-gas |
| --- | --- | --- |
| C1CCCCC1 | mN/m | 22.71 |
| CCCCCCCCC | mN/m | 20.94 |
| OC1CCCCC1 | mN/m | 31.58 |
| CCCCCC | mN/m | 16.38 |
| CCCCCCCCCCCC | mN/m | 22.56 |
| CCCCCCC | mN/m | 18.08 |

* * *

Details: 318.15 K, Ring tensiometer
Kind request: treat 20 mN/m as inclusive, so surface tension liquid-gas at 20 mN/m or higher is Criterion met, anything lower is Criterion not met.

| chemical-string | label |
| --- | --- |
| C1CCCCC1 | Criterion met |
| CCCCCCCCCCCC | Criterion met |
| OC1CCCCC1 | Criterion met |
| CCCCCCC | Criterion not met |
